assay-info: MRT in CD(SD) rat at 10 mg/kg, po administered as single dose and measured after 24 hrs
Format: ADME, organism-based
condition-info: in vivo
measurement-kind: MRT

// query Identify measured MRT associated with Cc1ccc(NC(=O)C[C@H](CCC(=O)O)c2noc([C@H]3C[C@@H](CC(C)(C)C)C3)c2C2CC2)c(Cl)c1
// result 5.6 h

---

Answer each item with its documented bioavailability.
assay-info: Oral bioavailability in CD(SD) rat at 3 mg/kg administered as single dose and measured after 24 hrs
Type: ADME, organism-based
condition-info: in vivo
Please reply with the bare figure in % and do not write the unit itself.

// query Identify measured bioavailability associated with Cc1ccc(NC(=O)C[C@H](CCC(=O)O)n2nnc([C@H]3C[C@@H](CC(C)(C)C)C3)c2C2CC2)c(Cl)c1
// result 61

// query Identify measured bioavailability associated with Cc1ccc(NC(=O)C[C@H](CCC(=O)O)c2nnn([C@H]3C[C@@H](CC(C)(C)C)C3)c2C2CC2)c(Cl)c1
// result 46

---

assay-info: Cmax in human at 200 […], po administered as single dose and measured upto 144 hrs
Assay type: ADME, organism-based
condition-info: in vivo
measurement-kind: Cmax (ng/mL)
Please reply with the bare figure in ng/mL and do not write the unit itself.

// query Identify measured Cmax associated with Cc1ccc(NC(=O)C[C@H](CCC(=O)O)c2noc([C@H]3C[C@@H](CC(C)(C)C)C3)c2C2CC2)c(Cl)c1
// result 8790

---

assay-target: Amine oxidase [flavin-containing] A (Homo sapiens)
Sequence (P21397 whole entry): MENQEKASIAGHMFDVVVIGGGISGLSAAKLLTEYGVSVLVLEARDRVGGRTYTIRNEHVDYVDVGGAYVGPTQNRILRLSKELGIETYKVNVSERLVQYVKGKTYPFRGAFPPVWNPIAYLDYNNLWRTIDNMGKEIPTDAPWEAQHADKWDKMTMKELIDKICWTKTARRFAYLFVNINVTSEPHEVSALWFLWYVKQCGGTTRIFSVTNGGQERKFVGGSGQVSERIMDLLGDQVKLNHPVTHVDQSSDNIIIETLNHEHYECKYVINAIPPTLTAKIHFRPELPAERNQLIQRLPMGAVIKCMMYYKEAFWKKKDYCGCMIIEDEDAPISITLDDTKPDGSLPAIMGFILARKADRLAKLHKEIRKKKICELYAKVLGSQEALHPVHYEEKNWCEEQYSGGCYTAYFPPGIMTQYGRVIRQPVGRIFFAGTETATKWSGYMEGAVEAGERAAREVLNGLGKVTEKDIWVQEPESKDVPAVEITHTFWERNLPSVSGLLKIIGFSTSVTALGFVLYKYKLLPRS
pIC50: −log10 of the molar value.
measurement-kind: pIC50

// query Identify measured pIC50 associated with Cc1ccc(NC(=O)C[C@H](CCC(=O)O)c2noc([C@H]3C[C@@H](CC(C)(C)C)C3)c2C2CC2)c(Cl)c1
// result < 5.00

---

assay-info: AUClast in human at 100 […], po administered as single dose and measured upto 144 hrs
Assay type: ADME, organism-based
condition-info: in vivo
measurement-kind: AUC(0-t) at 144 h (ng·h/mL)
Please reply with the bare figure in ng·h/mL and do not write the unit itself.

// query Identify measured AUC(0-t) at 144 h associated with Cc1ccc(NC(=O)C[C@H](CCC(=O)O)c2noc([C@H]3C[C@@H](CC(C)(C)C)C3)c2C2CC2)c(Cl)c1
// result 21200

---

Target protein (sequence): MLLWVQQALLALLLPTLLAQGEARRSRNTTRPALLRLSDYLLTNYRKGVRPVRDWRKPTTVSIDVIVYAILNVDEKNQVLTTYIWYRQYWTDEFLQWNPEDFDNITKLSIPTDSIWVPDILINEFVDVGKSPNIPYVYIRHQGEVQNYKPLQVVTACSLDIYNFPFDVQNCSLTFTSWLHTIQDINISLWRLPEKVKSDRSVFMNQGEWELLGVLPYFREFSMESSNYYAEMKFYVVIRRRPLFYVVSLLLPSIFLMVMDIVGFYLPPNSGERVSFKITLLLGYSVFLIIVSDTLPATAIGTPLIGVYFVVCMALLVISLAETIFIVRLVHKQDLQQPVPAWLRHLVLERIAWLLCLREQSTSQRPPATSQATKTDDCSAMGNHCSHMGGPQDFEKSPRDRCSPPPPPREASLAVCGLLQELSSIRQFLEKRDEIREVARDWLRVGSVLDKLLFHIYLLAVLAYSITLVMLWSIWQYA
measurement-kind: IC50

// query Identify measured IC50 associated with Cc1ccc(NC(=O)C[C@H](CCC(=O)O)c2noc([C@H]3C[C@@H](CC(C)(C)C)C3)c2C2CC2)c(Cl)c1
// result > 10 µM

---

assay-target: Histamine H3 receptor (Homo sapiens, UniProt Q9Y5N1)
Sequence (Q9Y5N1 whole entry): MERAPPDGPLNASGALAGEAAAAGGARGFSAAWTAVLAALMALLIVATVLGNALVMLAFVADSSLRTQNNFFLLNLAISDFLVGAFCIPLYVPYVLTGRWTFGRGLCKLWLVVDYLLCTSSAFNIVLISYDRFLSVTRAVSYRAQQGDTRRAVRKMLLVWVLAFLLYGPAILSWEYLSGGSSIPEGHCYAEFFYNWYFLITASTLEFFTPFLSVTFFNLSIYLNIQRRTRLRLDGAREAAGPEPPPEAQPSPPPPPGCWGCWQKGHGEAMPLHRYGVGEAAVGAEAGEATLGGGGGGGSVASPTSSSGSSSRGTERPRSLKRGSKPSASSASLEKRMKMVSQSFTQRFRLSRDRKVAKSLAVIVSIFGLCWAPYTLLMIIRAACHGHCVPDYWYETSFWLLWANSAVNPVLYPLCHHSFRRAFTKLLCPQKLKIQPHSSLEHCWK
measurement-kind: IC50

// query Identify measured IC50 associated with Cc1ccc(NC(=O)C[C@H](CCC(=O)O)c2noc([C@H]3C[C@@H](CC(C)(C)C)C3)c2C2CC2)c(Cl)c1
// result > 10 µM

---

assay-info: Total body clearance in cynomolgus monkey at 1 mg/kg, iv administered as single dose and measured after 24 hrs
Format: ADME, organism-based, Macaca fascicularis
condition-info: in vivo
measurement-kind: clearance (mL/min/kg)
Please reply with the bare figure in mL/min/kg and do not write the unit itself.

// query Identify measured clearance associated with Cc1ccc(NC(=O)C[C@H](CCC(=O)O)c2noc([C@H]3C[C@@H](CC(C)(C)C)C3)c2C2CC2)c(Cl)c1
// result 3.17

---

assay-target: Cytochrome P450 3A5 (Homo sapiens, UniProt P20815)
Sequence (P20815 whole entry): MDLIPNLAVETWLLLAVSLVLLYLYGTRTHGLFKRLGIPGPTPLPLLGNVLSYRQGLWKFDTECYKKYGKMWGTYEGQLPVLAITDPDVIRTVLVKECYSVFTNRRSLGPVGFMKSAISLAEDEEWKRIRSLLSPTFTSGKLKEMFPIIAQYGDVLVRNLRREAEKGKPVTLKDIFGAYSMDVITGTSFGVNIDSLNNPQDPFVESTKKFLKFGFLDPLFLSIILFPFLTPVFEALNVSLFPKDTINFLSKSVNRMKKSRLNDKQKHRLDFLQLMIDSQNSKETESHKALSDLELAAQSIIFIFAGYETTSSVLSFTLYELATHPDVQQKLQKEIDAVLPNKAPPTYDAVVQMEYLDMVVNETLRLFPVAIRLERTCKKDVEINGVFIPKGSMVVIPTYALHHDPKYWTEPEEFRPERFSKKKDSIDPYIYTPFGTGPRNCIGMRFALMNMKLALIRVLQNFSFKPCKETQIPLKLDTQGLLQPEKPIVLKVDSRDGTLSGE
assay-info: Inhibition of CYP3A5 in human liver microsomes using testosterone as substrate
Format: ADME, Microsome
measurement-kind: IC50

// query Identify measured IC50 associated with Cc1ccc(NC(=O)C[C@H](CCC(=O)O)c2noc([C@H]3C[C@@H](CC(C)(C)C)C3)c2C2CC2)c(Cl)c1
// result > 10 µM

---

assay-info: Inhibition of rat Muscarinic receptor
pIC50: −log10 of the molar value.
measurement-kind: pIC50

// query Identify measured pIC50 associated with Cc1ccc(NC(=O)C[C@H](CCC(=O)O)c2noc([C@H]3C[C@@H](CC(C)(C)C)C3)c2C2CC2)c(Cl)c1
// result < 5.00

---

assay-target: Cytochrome P450 3A4 (Homo sapiens)
Sequence (P08684 whole entry): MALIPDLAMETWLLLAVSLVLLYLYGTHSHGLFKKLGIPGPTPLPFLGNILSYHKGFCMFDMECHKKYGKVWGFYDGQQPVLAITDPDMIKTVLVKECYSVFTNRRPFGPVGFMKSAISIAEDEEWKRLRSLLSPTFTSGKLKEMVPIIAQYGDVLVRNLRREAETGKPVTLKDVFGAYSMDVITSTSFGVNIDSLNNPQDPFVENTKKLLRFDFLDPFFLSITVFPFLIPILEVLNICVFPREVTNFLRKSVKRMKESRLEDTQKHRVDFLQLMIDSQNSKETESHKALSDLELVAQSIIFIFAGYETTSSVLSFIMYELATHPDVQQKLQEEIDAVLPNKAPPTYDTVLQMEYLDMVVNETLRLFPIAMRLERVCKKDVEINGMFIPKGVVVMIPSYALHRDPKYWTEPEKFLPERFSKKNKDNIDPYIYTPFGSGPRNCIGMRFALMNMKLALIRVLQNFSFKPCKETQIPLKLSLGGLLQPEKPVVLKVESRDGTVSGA
assay-info: Inhibition of CYP3A4 in human liver microsomes using midazolam as substrate
Assay type: ADME, Microsome
pIC50: −log10 of the molar value.
measurement-kind: pIC50

// query Identify measured pIC50 associated with Cc1ccc(NC(=O)C[C@H](CCC(=O)O)c2noc([C@H]3C[C@@H](CC(C)(C)C)C3)c2C2CC2)c(Cl)c1
// result < 5.00

---

assay-info: Lipophilicity, logD of compound by RP-HPLC analysis
Format: physicochemical
measurement-kind: logD
The answer should be written as a number, with no unit following it.

// query Identify measured logD associated with Cc1ccc(NC(=O)CC(CC(=O)O)c2nnc([C@H]3C[C@@H](CC(C)C)C3)n2C2CC2)c(C)c1 (mixture of isomers)
// result 3.2

// query Identify measured logD associated with Cc1ccc(NC(=O)C[C@H](CCC(=O)O)c2noc([C@H]3C[C@@H](CC(C)C)C3)c2C2CC2)c(C)c1
// result 4.7

// query Identify measured logD associated with Cc1ccc(NC(=O)C[C@H](Cc2nnn[nH]2)c2noc([C@H]3C[C@@H](CC(C)C)C3)c2C2CC2)c(C)c1
// result 4.1

// query Identify measured logD associated with Cc1ccc(NC(=O)C[C@H](CCC(=O)O)c2nnn([C@H]3C[C@@H](CC(C)(C)C)C3)c2C2CC2)c(Cl)c1
// result 4.2

---

assay-info: Oral bioavailability in CD(SD) rat at 10 mg/kg administered as single dose and measured after 24 hrs
Format: ADME, organism-based
condition-info: in vivo
measurement-kind: bioavailability
A complete answer gives the number and then names the unit.

// query Identify measured bioavailability associated with Cc1ccc(NC(=O)C[C@H](CCC(=O)O)c2noc([C@H]3C[C@@H](CC(C)(C)C)C3)c2C2CC2)c(Cl)c1
// result 106%

---

Target sequence: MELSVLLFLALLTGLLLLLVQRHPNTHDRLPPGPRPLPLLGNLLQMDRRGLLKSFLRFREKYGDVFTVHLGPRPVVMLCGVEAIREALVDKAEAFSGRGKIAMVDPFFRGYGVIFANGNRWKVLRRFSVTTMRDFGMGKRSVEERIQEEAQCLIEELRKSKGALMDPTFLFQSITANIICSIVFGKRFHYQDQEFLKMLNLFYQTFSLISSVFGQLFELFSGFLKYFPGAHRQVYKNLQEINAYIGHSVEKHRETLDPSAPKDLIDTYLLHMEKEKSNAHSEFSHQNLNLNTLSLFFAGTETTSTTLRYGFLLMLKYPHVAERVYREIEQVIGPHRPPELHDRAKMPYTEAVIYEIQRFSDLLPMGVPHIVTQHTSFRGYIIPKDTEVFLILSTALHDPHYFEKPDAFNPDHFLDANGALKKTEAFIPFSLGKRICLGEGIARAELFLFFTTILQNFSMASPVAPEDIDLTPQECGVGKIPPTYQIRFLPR
measurement-kind: IC50

// query Identify measured IC50 associated with Cc1ccc(NC(=O)C[C@H](CCC(=O)O)c2noc([C@H]3C[C@@H](CC(C)(C)C)C3)c2C2CC2)c(Cl)c1
// result > 10 µM
